- Target system: human PPARα (Homo sapiens, UniProt Q07869)
- Construct: expressed in transfected cells; host or cells: HEK-293
- Sequence (Q07869 239-466 limits assumed): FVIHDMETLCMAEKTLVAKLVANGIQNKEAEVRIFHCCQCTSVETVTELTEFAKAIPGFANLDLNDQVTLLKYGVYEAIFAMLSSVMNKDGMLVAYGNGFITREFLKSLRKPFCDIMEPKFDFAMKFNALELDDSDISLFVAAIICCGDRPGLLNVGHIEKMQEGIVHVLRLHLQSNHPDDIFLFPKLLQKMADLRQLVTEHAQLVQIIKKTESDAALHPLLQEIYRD
- Experiment description: in vitro PPARα transactivation (GAL4-LBD luciferase reporter in HEK-293 cells)
- Format: cell-based
- Conditions: 50 μM
Outcome label depends on PPARα luciferase fold activation relative to untreated cells relative to 4: at/above gives Satisfied, below gives Not satisfied.

Examples with answers:
>>> class_assignment("CC(C)(Oc1ccc(CCCc2cc(-c3ccccc3)no2)cc1)C(=O)O [Example 28]")
"Satisfied"
>>> class_assignment("CCC(C)(Oc1ccc(OCc2cc(-c3ccccc3)no2)cc1)C(=O)O (stereo not shown) [Example 8]")
"Not satisfied"
>>> class_assignment("O=C(O)C1(Cc2ccc(OCc3cc(-c4ccc(C(F)(F)F)cc4)no3)cc2)CCCO1 (stereo not shown) [Example 36]")
"Satisfied"

Entry CC[C@@](C)(Oc1ccc(OCc2cc(-c3ccc(OS(C)(=O)=O)cc3)no2)cc1)C(=O)O [Example 26] : is its PPARα luciferase fold activation relative to untreated cells no less than 4?
Satisfied

Entry O=C(O)C1(Oc2ccc(OCc3cc(-c4ccccc4)no3)cc2)CCCC1 [Example 9] : is its PPARα luciferase fold activation relative to untreated cells no less than 4?
Not satisfied

* * *

Measurement label: melting point

>>> reported("CCC(C)(Oc1ccc(OCCCc2cc(-c3ccc(C(F)(F)F)cc3)no2)cc1)C(=O)O (stereo not shown) [Example 21]")
"110 to 112 °C"
>>> reported("CCC(C)(Oc1ccc(OCc2cc(-c3ccc(-c4ccccc4)cc3)no2)cc1)C(=O)O (stereo not shown) [Example 19]")
"188 to 190 °C"

Query (compound): CCC(C)(Oc1ccc(OCc2cc(-c3ccccc3)no2)cc1)C(=O)O (stereo not shown) [Example 8] ; field requested: melting point
70 to 74 °C

Query (compound): CCC(C)(Oc1ccc(OCc2cc(-c3ccc(C)cc3)no2)cc1)C(=O)OC (stereo not shown) [Example 29] ; field requested: melting point
100 to 102 °C

Query (compound): CCOC(=O)C1(Oc2ccc(OCc3cc(-c4ccccc4)no3)cc2)CCCC1 [Example 2] ; field requested: melting point
83 to 85 °C

Query (compound): CCC(C)(Oc1ccc(OC/C=C/c2cc(-c3ccccc3)no2)cc1)C(=O)O (stereo not shown) [Example 20] ; field requested: melting point
118 to 120 °C

Query (compound): CCC(C)(Oc1ccc(OCc2cc(-c3ccc(OCc4ccccc4)cc3)no2)cc1)C(=O)O (stereo not shown) [Example 3] ; field requested: melting point
132 to 134 °C

Query (compound): CCC(C)(Oc1ccc(OCc2cc(-c3ccc([N+](=O)[O-])cc3)no2)cc1)C(=O)O (stereo not shown) [Example 22] ; field requested: melting point
128 to 130 °C

Query (compound): CC[C@](C)(Oc1ccc(OCCCc2cc(-c3ccccc3)no2)cc1)C(=O)O [Example 16] ; field requested: melting point
121 to 122 °C

Query (compound): CCC(C)(Oc1ccc(OCCCc2cc(-c3ccc(C)cc3)no2)cc1)C(=O)O (stereo not shown) [Example 32] ; field requested: melting point
98 to 100 °C

Query (compound): O=C(O)C1(Oc2ccc(OCc3cc(-c4ccccc4)no3)cc2)CCCC1 [Example 9] ; field requested: melting point
135 to 137 °C

Query (compound): CCC(C)(Oc1ccc(OCc2cc(-c3ccc(C)cc3)no2)cc1)C(=O)O (stereo not shown) [Example 30] ; field requested: melting point
138 to 140 °C

Query (compound): CCC(C)(Oc1ccc(OCc2cc(-c3ccc(C(F)(F)F)cc3)no2)cc1)C(=O)O (stereo not shown) [Example 11] ; field requested: melting point
136 to 138 °C

Query (compound): Cc1cc(SCc2cc(-c3ccc(C(F)(F)F)cc3)no2)ccc1OC(C)(C)C(=O)O [Example 13] ; field requested: melting point
106 to 108 °C

Query (compound): CCC(C)(Oc1ccc(OCCCc2cc(-c3ccccc3)no2)cc1)C(=O)O (stereo not shown) [Example 10] ; field requested: melting point
115 to 117 °C

Query (compound): CCC(C)(Oc1ccc(OCCCc2cc(-c3ccc(Cl)cc3)no2)cc1)C(=O)O (stereo not shown) [Example 34] ; field requested: melting point
130 to 132 °C

Query (compound): CCC(C)(Oc1ccc(OCc2cc(-c3ccc(F)cc3)no2)cc1)C(=O)O (stereo not shown) [Example 23] ; field requested: melting point
118 to 120 °C

Query (compound): CC(C)(Oc1ccc(OCc2cc(-c3ccc(C(F)(F)F)cc3)no2)cc1)C(=O)O [Example 12] ; field requested: melting point
166 to 168 °C

Query (compound): CC[C@@](C)(Oc1ccc(OCCCc2cc(-c3ccccc3)no2)cc1)C(=O)O [Example 15] ; field requested: melting point
105 to 108 °C
